The values you see were collected from patent US20240252677A1.

- test-method-notes: Stability of DNPs by DLS after storage at 5° C.
- Assay type: physicochemical
- experimental-context: DNPs: IAJD 4.0 mg/mL + Luc-mRNA 0.1 mg/mL, injection in acetate buffer pH 4.00
- Protocol: The stability of the DNPs as assayed by DLS. All the samples are prepared in acetate buffer. […]
value-type: pH Sample
Keep the answer to the number alone.

Take a look at these entries with their results.
molecule="CCCCCCCCCCCCCCCCCCOc1cc(COC(=O)CCCN2CCN(C)CC2)cc(OCCCCCCCCCCCCC)c1 [IAJD 177]" measured_number=4.76
molecule="CCCCCCCCCCCCCCCCOc1cc(COC(=O)CCCN2CCN(C)CC2)cc(OCCCCCCCCCCCCCCC)c1 [IAJD 149]" measured_number=4.50

INPUT: Answer with the recorded pH Sample of CCCCCCCCCCCCOc1cc(COC(=O)c2cc(OCCOCCOCCCC(=O)CCCN3CCCCC3)c(OCCOCCOCCOCc3ccccc3)c(OCCOCCOCCOC(=O)CCCN3CCCCC3)c2)cc(OCCCCCCCCCCCC)c1 [IAJD 110] only.
OUTPUT: 4.91

INPUT: Answer with the recorded pH Sample of CCCCCCCCCCCCCCCCOc1cc(COC(=O)CCCN2CCN(CCO)CC2)cc(OCCCCCCCCCCC)c1 [IAJD 120] only.
OUTPUT: 4.40

INPUT: Answer with the recorded pH Sample of CCCCCCCCCCCCCCCOc1cc(COC(=O)CCCN2CCN(C)CC2)cc(OCCCCCCCCCC)c1 [IAJD 141] only.
OUTPUT: 4.62

INPUT: Answer with the recorded pH Sample of CCCCCCCCCCCCCCCOc1cc(COC(=O)CCCN2CCN(C)CC2)cc(OCCCCCCCCCCC)c1 [IAJD 118] only.
OUTPUT: 4.43

INPUT: Answer with the recorded pH Sample of CCCCCCCCCCCCCCCOc1cc(COC(=O)CCCN2CCN(C)CC2)cc(OCCCCCCCCCCCCC)c1 [IAJD 145] only.
OUTPUT: 4.51

INPUT: Answer with the recorded pH Sample of CCCCCCCCCCCCCCCOc1cc(COC(=O)CCCN2CCN(C)CC2)cc(OCCCCCCCCCCCCCC)c1 [IAJD 147] only.
OUTPUT: 4.50
